Taken from ChEMBL document CHEMBL1201862.

Test system: KM-20L2
Assay: NCI tumour cell line growth inhibition, 48 h
The source made the active and inactive calls. Cut-off read from the data, not from the text of the source: active = GI50 up to about 1.1 µM and inactive = higher.
compounds and their reported GI50
property_name: GI50

compound	target	measured_value
N#CCCC(C#N)(C#N)CCC#N	KM-20L2	> 100 µM (inactive)
CN(C)CCNC(=O)c1cccc2nc(-c3ccccc3)oc12	KM-20L2	28.8 µM (inactive)
CC(C)C(Sc1nc(-c2ccccc2)c(-c2ccccc2)[nH]1)C(=O)N/N=C/c1ccc(Cl)cc1 (stereo not drawn)	KM-20L2	20.6 µM (inactive)
COc1ccc(-c2onc(-c3c(C)cc(C)cc3C)c2C2=NCCN2)cc1	KM-20L2	28.3 µM (inactive)
c1ccc(-c2ccnc3c2ccc2c(-c4ccccc4)ccnc23)cc1	KM-20L2	3.73 µM (inactive)
COc1cccc2c1C1(O)C2CCCCCCCCCC12OCCCO2 (stereo not drawn)	KM-20L2	> 100 µM (inactive)
OC(Cn1cncn1)(Cn1cncn1)c1ccc(Cl)cc1Cl	KM-20L2	> 100 µM (inactive)
O[C@]12c3ccccc3C1CCCC2N1CCOCC1 (stereo partly drawn)	KM-20L2	> 100 µM (inactive)
CNS(=O)(=O)NN(C)S(=O)(=O)c1ccc(C)cc1	KM-20L2	> 100 µM (inactive)
CN(C)CC1CC/C(=C\c2ccc(O)cc2)C1=O (stereo not drawn)	KM-20L2	9.55 µM (inactive)
Clc1ccc(-n2nnc(C3=NCCN3)c2-c2ccccc2)cc1	KM-20L2	> 100 µM (inactive)
CC[C@@]1(O)C[C@H](OC2CC(N(C)C)C(OC3CC(O)C(OC4CC(O)C(O)C(C)O4)C(C)O3)C(C)O2)c2c(cc3c(c2O)C(=O)c2c(O)ccc(O)c2C3=O)[C@H]1C(=O)OC (stereo partly drawn)	KM-20L2	0.108 µM (active)
Cc1coc2c1C(=O)C(=O)c1ccccc1-2	KM-20L2	3.36 µM (inactive)
COC(=O)C(C(=O)C(=O)Nc1ccc(OC)cc1[N+](=O)[O-])c1nc2cc(C)c(C)cc2nc1O (stereo not drawn)	KM-20L2	> 100 µM (inactive)
CN(CCc1ccccn1)/[N+]([O-])=N/O.CNCCc1ccccn1	KM-20L2	> 100 µM (inactive)
C/C(CN1C(=O)c2ccccc2C1=O)=N\NS(=O)(=O)c1ccc(Br)cc1	KM-20L2	> 100 µM (inactive)
NC(Cc1ccc2oc3cc(=O)c4ccccc4c-3nc2c1)C(=O)O (stereo not drawn)	KM-20L2	39.2 µM (inactive)
O=C1[C@H]2ON(c3ccccc3)C(c3ccc(Cl)cc3Cl)[C@H]2C(=O)N1c1ccc(Cc2ccc(N3C(=O)[C@@H]4ON(c5ccccc5)C(c5ccc(Cl)cc5Cl)[C@@H]4C3=O)cc2)cc1 (stereo partly drawn)	KM-20L2	> 100 µM (inactive)
CCCCCCCCCCCCCCCCOCC(CN(C)CCN(C)C)OCCCCCCCCCCCCCCCC (stereo not drawn)	KM-20L2	> 100 µM (inactive)
S=P(N1CCCC1)(N1CC1)N1CC1	KM-20L2	> 100 µM (inactive)
COc1cc(CC2c3cc(OC)c(OC)cc3CCN2C)ccc1O (stereo not drawn)	KM-20L2	> 100 µM (inactive)
CN(CO)c1nc(N(C)CO)nc(N(C)CO)n1	KM-20L2	8.85 µM (inactive)
O=C1C(=O)N(c2ccc(Cl)c(Cl)c2)C(=O)C(=O)C1c1nc2ccccc2o1	KM-20L2	> 100 µM (inactive)
C/C(=N\N=C(N)N)c1sc(-c2nc(C)c(/C(C)=N/N=C(N)N)s2)nc1C	KM-20L2	> 100 µM (inactive)
CCCCCCCCCCCCCCCCCC(=O)O[C@H](COC(=O)CCCCCCCCCCC)COC(=O)CCCCCCCCCCCCCCC	KM-20L2	> 100 µM (inactive)
C=C(C)C1Cc2c(cc(OC)c3c(=O)c4ccccc4n(C)c23)O1 (stereo not drawn)	KM-20L2	> 100 µM (inactive)
C#CCOCn1cnc2c(N)ncnc21	KM-20L2	> 100 µM (inactive)
Cc1nc2c(=O)[nH]c(=O)n(C)c2[nH]c1=O.c1ccncc1	KM-20L2	> 100 µM (inactive)
